Reference source: patent US20220213060A1

- experimentSummary: Sprague Dawley (SD) rat absorption test (pharmacokinetics)
- Assay type: in vivo, SD rats
- conditionContext: female, Sprague-Dawley, rat, plasma, po, 3 mg/kg, female SD rats, single
- Description: SD rats were given the crystal form A of the compound represented by formula (I) by single or multiple oral gavage and single intravenous injection respectively, with 6 rats in each group, half male and half female. […] According to the drug plasma concentration-time curve, the pharmacokinetic parameters were calculated. […]
valueKind: half-life (h)

CNC(=O)[C@H](C)Cn1cnc2ccc(-c3cnc(OC)c(NS(=O)(=O)c4ccc(F)cc4F)c3)cc2c1=O; 2.71

====

- experimentSummary: Sprague Dawley (SD) rat absorption test (pharmacokinetics)
- Assay type: in vivo, SD rats
- conditionContext: female, Sprague-Dawley, rat, plasma, iv, 1 mg/kg, female SD rats, vein, single
valueKind: half-life (h)

CNC(=O)[C@H](C)Cn1cnc2ccc(-c3cnc(OC)c(NS(=O)(=O)c4ccc(F)cc4F)c3)cc2c1=O; 1.63
